These data points were gathered from paper PMC6411960.

- Measured on: AR-LBD (Homo sapiens, UniProt P10275)
- Sequence (P10275 669-900 limits assumed): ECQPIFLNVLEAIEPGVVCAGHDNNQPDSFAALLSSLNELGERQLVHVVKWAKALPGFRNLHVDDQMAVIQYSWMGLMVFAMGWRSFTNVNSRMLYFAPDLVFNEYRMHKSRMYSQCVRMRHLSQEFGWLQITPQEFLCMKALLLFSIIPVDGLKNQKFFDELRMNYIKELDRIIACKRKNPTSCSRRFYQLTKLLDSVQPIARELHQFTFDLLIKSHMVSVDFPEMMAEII
- Protocol notes: PolarScreen AR competitor assay (fluorescence polarization)
- Reported conditions: competition with Flu-AR ligand, gradient concentrations 0.1–100 µM; read-out: Binding EC50
Experimental endpoint: pEC50
Scale explanation: pEC50 corresponds to minus log10 of a concentration expressed in moles per litre.

item_smiles=Cc1ccccc1NCC(=O)N/N=C/c1ccc(-c2ccc(Cl)c(Cl)c2)o1 experimental_endpoint=pEC50 result=5.31

Exercise: Given the compound `Cc1cc(O)nc2ccc(S(=O)(=O)Nc3ccc(O)cc3)cc12` , what is its reported pEC50?
Key: 5.40

----------
- System: AR transcriptional activity
- Protocol notes: LNCaP-ARR2PB-eGFP transcriptional activity assay, antagonist mode (with DHT)
- Type: cell-based
- Reported conditions: LNCaP-ARR2PB-eGFP, with DHT; read-out: IC50, antagonistic effect on AR transcriptional activity
Experimental endpoint: IC50 (µM)
API: value field is a number in µM; no unit string.

Exercise: Given the molecule Cc1ccccc1NCC(=O)N/N=C/c1ccc(-c2ccc(Cl)c(Cl)c2)o1 [HBP1-58] , what is its reported IC50?
Key: 3.25
